Recorded values, source patent US20220412957A1.

Let's look at some compounds and their measured output value.
Tested on: LPA1-initiated signaling in HER2-negative/PI3K//ERK/MEK/RAF/mTOR Wild-Type breast tumor cell samples
Assay: impedance biosensor cell adhesion test, LPA1 agonist with RAS node inhibitors (Example 4)
Format: cell-based, human
Parameters: unit not given here
Details: sample C3730.01.9, cut-off 250
Test Readout: output value

CCN(C)S(=O)(=O)Nc1ccc(F)c(C(=O)c2c[nH]c3ncc(-c4cnc(C5CC5)nc4)cc23)c1F = −173
CN(C)C1CCN(C(=O)c2ccc(NC(=O)Nc3ccc(-c4nc(N5CCOCC5)nc(N5CCOCC5)n4)cc3)cc2)CC1 = 494
C[C@H](Nc1ccc2c(c1)OCCn1cc(N3C(=O)OC[C@H]3C(F)F)nc1-2)C(N)=O = −113
Cn1nccc1Nc1nccc(-c2ccn([C@H](CO)c3ccc(Cl)c(F)c3)c(=O)c2)n1 = −300
CC(=O)Nc1cccc(-n2c(=O)n(C3CC3)c(=O)c3c(Nc4ccc(I)cc4F)n(C)c(=O)c(C)c32)c1 = −204
COc1c(OCCCN2CCOCC2)ccc2c1N=C(NC(=O)c1cnc(N)nc1)N1CCN=C21 = 511
